tested-target: Serotonin Transporter (Homo sapiens, UniProt P31645)
Sequence (P31645 whole entry): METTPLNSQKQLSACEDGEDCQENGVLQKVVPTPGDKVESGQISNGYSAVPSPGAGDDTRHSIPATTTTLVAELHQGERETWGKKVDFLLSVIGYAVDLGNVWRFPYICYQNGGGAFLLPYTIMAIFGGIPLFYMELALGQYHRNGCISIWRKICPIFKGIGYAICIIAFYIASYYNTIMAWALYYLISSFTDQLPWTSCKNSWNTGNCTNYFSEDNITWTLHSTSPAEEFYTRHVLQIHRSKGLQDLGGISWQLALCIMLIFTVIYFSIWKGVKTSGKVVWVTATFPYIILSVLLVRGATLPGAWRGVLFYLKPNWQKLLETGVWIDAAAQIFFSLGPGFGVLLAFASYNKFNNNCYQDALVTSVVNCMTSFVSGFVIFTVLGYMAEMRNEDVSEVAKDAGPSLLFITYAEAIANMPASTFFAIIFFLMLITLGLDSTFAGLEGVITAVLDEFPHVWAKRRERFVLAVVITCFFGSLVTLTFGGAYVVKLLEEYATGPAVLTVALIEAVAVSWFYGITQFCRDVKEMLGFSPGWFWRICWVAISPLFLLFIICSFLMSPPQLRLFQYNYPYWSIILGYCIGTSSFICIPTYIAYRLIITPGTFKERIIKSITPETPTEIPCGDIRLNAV
Each record here notes measured Ki.

molecule	Ki
Cc1ccc2c(c1)Oc1sc(SC(C)C)cc1C(N1CCN(CC(C)(C)C(=O)O)CC1)=N2 [Example 2]	> 651 nM
Cc1ccc2c(c1)Oc1sc(SC(C)C)cc1C(N1CCN(CC(C)(C)C(=O)O)CC1)=N2 [Example 1]	> 521 nM

====

// each record: one item and its pKi for 5-HT2B (Homo sapiens)
pKi: −log10 of the molar value.

molecule	pKi
Cc1ccc2c(c1)Oc1sc(SC(C)C)cc1C(N1CCN(CC(C)(C)C(=O)O)CC1)=N2 [Example 1]	6.12
Cc1ccc2c(c1)Oc1sc(SC(C)C)cc1C(N1CCN(CC(C)(C)C(=O)O)CC1)=N2 [Example 2]	6.12

====

tested-target: UniProtKB P35462
Sequence (P35462 whole entry): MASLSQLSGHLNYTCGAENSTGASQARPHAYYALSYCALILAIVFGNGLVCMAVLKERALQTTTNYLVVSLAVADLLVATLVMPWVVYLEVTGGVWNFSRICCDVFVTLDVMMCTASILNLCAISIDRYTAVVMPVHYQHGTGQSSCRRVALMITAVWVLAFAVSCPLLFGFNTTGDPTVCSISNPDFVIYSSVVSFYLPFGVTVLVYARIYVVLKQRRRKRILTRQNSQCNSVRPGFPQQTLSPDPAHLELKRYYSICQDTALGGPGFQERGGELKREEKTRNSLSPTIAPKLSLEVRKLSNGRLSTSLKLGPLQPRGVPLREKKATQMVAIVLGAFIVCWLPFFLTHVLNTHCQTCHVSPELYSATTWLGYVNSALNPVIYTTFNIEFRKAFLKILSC
pKi: −log10 of the molar value.

compound	pKi
Cc1ccc2c(c1)Oc1sc(SC(C)C)cc1C(N1CCN(CC(C)(C)C(=O)O)CC1)=N2 [Example 2]	< 5.23
Cc1ccc2c(c1)Oc1sc(SC(C)C)cc1C(N1CCN(CC(C)(C)C(=O)O)CC1)=N2 [Example 1]	< 5.26

====

Target protein (sequence): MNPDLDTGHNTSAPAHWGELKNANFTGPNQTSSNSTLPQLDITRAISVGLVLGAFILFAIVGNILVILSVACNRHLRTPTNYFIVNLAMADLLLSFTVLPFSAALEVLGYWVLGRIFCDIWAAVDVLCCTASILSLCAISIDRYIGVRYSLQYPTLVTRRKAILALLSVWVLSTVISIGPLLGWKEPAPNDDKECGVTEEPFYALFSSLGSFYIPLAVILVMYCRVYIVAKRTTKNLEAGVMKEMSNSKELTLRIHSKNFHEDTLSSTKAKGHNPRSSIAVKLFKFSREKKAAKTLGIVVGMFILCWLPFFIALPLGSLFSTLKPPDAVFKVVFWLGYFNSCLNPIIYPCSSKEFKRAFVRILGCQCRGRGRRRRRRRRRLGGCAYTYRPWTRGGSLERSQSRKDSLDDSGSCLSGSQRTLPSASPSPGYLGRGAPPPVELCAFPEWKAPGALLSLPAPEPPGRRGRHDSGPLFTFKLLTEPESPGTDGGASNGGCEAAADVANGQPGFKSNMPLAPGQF
Each record here notes measured Ki.

compound	value-unit	result-qualifier	Ki
Cc1ccc2c(c1)Oc1sc(SC(C)C)cc1C(N1CCN(CC(C)(C)C(=O)O)CC1)=N2 [Example 1]	µM	>	15.8
Cc1ccc2c(c1)Oc1sc(SC(C)C)cc1C(N1CCN(CC(C)(C)C(=O)O)CC1)=N2 [Example 2]	µM	=	10.4

====

tested-target: 5-HT1B receptors (Homo sapiens, UniProt P28222)
Sequence (P28222 whole entry): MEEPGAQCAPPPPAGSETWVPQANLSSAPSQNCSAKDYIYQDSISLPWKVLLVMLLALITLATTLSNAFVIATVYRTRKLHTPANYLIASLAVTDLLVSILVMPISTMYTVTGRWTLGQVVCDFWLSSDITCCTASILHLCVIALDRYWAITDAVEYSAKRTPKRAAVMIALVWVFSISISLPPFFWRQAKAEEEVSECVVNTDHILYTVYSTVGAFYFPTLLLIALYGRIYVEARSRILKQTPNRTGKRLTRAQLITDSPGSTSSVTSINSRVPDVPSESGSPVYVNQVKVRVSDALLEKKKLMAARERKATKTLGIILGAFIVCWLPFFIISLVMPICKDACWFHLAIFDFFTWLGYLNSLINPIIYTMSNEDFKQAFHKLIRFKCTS
pKi: −log10 of the molar value.

structure-notation	pKi
Cc1ccc2c(c1)Oc1sc(SC(C)C)cc1C(N1CCN(CC(C)(C)C(=O)O)CC1)=N2	< 5.02

====

tested-target: recombinant rat 5-HT2A receptor (Rattus norvegicus, UniProt P14842)
Sequence (P14842 whole entry): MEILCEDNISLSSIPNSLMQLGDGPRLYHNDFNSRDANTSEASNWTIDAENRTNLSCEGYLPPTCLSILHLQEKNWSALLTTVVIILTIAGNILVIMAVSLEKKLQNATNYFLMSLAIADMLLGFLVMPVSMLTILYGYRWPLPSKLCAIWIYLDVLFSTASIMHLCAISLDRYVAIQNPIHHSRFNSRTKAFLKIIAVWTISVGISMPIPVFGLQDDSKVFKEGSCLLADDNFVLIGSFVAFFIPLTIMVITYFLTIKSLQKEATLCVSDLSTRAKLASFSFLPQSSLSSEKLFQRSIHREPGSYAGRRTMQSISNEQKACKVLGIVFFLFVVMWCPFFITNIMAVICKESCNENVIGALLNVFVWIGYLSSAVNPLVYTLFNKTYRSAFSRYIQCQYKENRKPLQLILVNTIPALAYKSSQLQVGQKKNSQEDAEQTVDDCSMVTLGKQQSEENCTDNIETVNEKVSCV
experimental-protocol: 5-HT2A inverse agonism, [35S]GTPγS binding to AV12 membranes (rat receptor)
conditions-used: n=2, read-out: EC50, inhibition of intrinsic activity of the 5-HT2A receptor
pEC50: −log10 of the molar value.

structure-notation	pEC50
Cc1ccc2c(c1)Oc1sc(SC(C)C)cc1C(N1CCN(CC(C)(C)C(=O)O)CC1)=N2	6.99

====

tested-target: H1 receptors (Homo sapiens)
Sequence (P35367 whole entry): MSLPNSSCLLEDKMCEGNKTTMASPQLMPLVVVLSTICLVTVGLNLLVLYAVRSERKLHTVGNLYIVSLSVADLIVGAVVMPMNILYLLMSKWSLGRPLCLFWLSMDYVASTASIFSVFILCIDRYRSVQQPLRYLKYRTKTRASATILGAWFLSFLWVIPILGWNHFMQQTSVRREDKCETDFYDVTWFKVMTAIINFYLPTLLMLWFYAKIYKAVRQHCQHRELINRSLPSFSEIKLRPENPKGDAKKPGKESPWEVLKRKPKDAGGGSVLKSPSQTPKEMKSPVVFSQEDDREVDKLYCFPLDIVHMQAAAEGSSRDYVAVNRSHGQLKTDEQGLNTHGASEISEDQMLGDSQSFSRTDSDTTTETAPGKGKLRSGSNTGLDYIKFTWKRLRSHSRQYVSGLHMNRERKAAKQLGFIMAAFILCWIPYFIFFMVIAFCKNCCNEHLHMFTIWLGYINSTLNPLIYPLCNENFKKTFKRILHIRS
Each record here notes measured Ki.

compound	tested-target	Ki, nM
Cc1ccc2c(c1)Oc1sc(SC(C)C)cc1C(N1CCN(CC(C)(C)C(=O)O)CC1)=N2 [Example 1]	H1 receptors (Homo sapiens)	599
Cc1ccc2c(c1)Oc1sc(SC(C)C)cc1C(N1CCN(CC(C)(C)C(=O)O)CC1)=N2 [Example 2]	H1 receptors (Homo sapiens)	893

====

tested-target: 5-HT7 receptors (Homo sapiens, UniProt P34969)
Sequence (P34969 whole entry): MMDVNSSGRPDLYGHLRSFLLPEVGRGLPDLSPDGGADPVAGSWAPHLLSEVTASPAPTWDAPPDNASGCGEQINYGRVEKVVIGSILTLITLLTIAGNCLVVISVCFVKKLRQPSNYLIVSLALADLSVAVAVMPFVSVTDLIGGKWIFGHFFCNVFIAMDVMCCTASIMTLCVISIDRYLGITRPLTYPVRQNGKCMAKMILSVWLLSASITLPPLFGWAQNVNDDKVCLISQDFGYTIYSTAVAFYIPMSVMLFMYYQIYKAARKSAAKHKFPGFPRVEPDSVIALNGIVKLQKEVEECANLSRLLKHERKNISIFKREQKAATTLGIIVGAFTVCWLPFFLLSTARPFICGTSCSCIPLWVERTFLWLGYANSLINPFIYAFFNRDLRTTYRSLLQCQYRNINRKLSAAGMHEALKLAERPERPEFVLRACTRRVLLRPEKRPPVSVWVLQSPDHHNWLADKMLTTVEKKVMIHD

compound	Ki
Cc1ccc2c(c1)Oc1sc(SC(C)C)cc1C(N1CCN(CC(C)(C)C(=O)O)CC1)=N2 [Example 1]	> 2060 nM

====

tested-target: Dopamine D2 (Homo sapiens)
Sequence (P14416 whole entry): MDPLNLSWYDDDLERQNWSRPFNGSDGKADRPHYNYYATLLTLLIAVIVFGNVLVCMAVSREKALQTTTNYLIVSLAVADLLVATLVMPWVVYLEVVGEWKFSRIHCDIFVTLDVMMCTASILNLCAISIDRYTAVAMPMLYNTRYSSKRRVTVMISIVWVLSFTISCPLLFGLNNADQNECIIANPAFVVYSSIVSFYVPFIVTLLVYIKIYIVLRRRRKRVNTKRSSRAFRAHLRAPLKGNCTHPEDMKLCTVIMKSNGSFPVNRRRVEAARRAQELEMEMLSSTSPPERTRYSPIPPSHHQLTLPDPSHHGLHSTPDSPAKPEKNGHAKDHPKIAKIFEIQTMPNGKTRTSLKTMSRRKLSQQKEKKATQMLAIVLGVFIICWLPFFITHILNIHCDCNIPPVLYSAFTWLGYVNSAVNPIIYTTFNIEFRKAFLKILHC
experimental-protocol: Dopamine D2 binding
Each record here notes measured Ki.

molecule	Ki
Cc1ccc2c(c1)Oc1sc(SC(C)C)cc1C(N1CCN(CC(C)(C)C(=O)O)CC1)=N2 [Example 2]	> 3.67 µM
Cc1ccc2c(c1)Oc1sc(SC(C)C)cc1C(N1CCN(CC(C)(C)C(=O)O)CC1)=N2 [Example 1]	> 7.66 µM

====

tested-target: 5-HT5 (Homo sapiens, UniProt P47898)
Sequence (P47898 whole entry, species assumed): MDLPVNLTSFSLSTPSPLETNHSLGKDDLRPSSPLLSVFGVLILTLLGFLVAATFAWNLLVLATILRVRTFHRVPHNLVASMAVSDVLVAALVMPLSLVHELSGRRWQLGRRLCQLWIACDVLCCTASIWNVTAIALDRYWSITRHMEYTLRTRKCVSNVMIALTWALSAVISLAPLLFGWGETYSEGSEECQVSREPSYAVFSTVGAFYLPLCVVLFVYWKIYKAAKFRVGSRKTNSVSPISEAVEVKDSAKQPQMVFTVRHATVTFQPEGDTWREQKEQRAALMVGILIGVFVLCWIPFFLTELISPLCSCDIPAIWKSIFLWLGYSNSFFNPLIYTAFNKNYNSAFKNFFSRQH
pKi: −log10 of the molar value.

structure-notation	pKi
Cc1ccc2c(c1)Oc1sc(SC(C)C)cc1C(N1CCN(CC(C)(C)C(=O)O)CC1)=N2	5.17

====

tested-target: Norepinephrine Transport (Homo sapiens, UniProt P23975)
Sequence (P23975 whole entry): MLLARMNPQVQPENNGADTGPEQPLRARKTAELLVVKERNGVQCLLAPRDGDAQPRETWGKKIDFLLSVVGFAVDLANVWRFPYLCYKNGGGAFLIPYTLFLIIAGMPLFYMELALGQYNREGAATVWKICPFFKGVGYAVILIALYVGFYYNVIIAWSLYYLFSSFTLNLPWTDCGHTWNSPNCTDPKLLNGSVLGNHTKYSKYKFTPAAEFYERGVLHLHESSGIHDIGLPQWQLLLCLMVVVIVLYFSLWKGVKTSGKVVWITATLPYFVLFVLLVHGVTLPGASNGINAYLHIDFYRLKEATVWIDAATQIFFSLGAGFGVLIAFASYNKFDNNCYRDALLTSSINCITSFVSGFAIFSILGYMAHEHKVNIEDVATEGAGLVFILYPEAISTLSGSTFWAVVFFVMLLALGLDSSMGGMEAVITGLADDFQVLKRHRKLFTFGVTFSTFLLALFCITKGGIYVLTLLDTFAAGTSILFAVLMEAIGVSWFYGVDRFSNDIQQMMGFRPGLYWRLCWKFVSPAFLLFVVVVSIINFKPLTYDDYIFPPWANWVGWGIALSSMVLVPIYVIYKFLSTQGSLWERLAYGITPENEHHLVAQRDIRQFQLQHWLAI
experimental-endpoint: Ki

compound	experimental-endpoint	result
Cc1ccc2c(c1)Oc1sc(SC(C)C)cc1C(N1CCN(CC(C)(C)C(=O)O)CC1)=N2 [Example 2]	Ki	> 691 nM

====

tested-target: UniProt:P50406

structure-notation	tested-target	Ki [nM]
Cc1ccc2c(c1)Oc1sc(SC(C)C)cc1C(N1CCN(CC(C)(C)C(=O)O)CC1)=N2	UniProt:P50406	1130

====

Each record here notes measured pKi.
tested-target: Adrenergic alpha2A (Homo sapiens)
Sequence (P08913 whole entry): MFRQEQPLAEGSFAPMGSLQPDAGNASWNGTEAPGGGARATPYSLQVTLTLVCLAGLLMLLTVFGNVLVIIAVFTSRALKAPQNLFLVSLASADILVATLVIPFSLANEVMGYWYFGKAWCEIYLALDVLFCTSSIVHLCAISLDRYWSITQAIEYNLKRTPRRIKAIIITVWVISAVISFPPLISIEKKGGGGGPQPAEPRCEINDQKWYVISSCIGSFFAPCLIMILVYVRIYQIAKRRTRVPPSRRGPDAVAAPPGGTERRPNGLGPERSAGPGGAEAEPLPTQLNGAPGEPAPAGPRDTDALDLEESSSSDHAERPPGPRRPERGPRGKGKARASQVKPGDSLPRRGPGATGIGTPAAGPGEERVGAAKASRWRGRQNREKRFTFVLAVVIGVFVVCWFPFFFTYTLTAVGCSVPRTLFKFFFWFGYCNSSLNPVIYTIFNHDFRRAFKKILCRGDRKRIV
experimental-protocol: Adrenergic alpha2A binding
Procedure: Curves are evaluated using a 4-parameter logistic nonlinear equation to obtain the concentration of competitor causing 50% inhibition of radioligand binding (IC50). […]
pKi: −log10 of the molar value.

molecule	pKi
Cc1ccc2c(c1)Oc1sc(SC(C)C)cc1C(N1CCN(CC(C)(C)C(=O)O)CC1)=N2 [Example 1]	< 5.79
Cc1ccc2c(c1)Oc1sc(SC(C)C)cc1C(N1CCN(CC(C)(C)C(=O)O)CC1)=N2 [Example 2]	< 5.05
